EC50 values, listed per item
# Test system: U937 cells
# experimental-protocol: Annexin V-PE/7-AAD apoptosis assay
# Assay type: cell-based
# conditions-used: Homo sapiens, U-937, read-out: Calculated EC50 values from Annexin V, 7-AAD double positive events
endpoint-name: EC50

{"compound": "O=C1C=C2C(=CCOC2O)O1 (centres unmarked)", "test-system": "U937 cells", "assay-result": "3.29 µM"}
{"compound": "C[C@H]1COC2=C1C(=O)C(=O)c1c2ccc2c1CCCC2(C)C", "test-system": "U937 cells", "assay-result": "53.5 µM"}
